# SYSTEM: T1, ZFP SBS#1051 (synthetic)
# T1 chain: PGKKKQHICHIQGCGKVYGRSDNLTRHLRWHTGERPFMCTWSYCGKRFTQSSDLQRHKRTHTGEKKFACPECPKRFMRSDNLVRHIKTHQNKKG
# TEST: EMSA
# SETTINGS: tags: MBP fusion
REPORTED METRIC: Kd (nM)
Form entry: value (nM) — number only.

Asked: Report Kd, nothing else, for this binder: GAGGCTGAG (dsDNA) DNA 1: GAGGCTGAG DNA 2: CTCAGCCTC
Given back: 0.02

The reported numbers originate from patent US20030068675.
